Origin of measurements: patent US20090053213A1

TARGET DESC: human GM-CSF (human, UniProt P04141 18-144)
Sequence (P04141 18-144): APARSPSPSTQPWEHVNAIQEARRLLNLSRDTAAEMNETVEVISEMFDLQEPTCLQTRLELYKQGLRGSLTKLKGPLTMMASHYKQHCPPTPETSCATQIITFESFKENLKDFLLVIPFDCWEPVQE
ASSAY NOTES: cell-based or functional assay
Recorded IC50 x-fold improved compared to Mab215, TF-1 proliferation assay for the following binders
Numeric only. Scale: fold

Examples from the recorded data:
[[record]]
binder = "MOR04350 Fab (Fab, V domains shown, X-cloned Fab (VH of MOR04287 x VL of MOR04302) with FLAG and 6xHis tags) VH: QVQLVESGGGLVQPGGSLRLSCAASGFTFSSYWMNWVRQAPGKGLEWVSGIENKRAGGATFYAASVKGRFTISRDNSKNTLYLQMNSLRAEDTAVYYCARGFGTDFWGQGTLVTVSS VL: DIELTQPPSVSVAPGQTARISCSGDSIGKKYAYWYQQKPGQAPVLVIYKKRPSGIPERFSGSNSGNTATLTISGTQAEDEADYYCSAWGDKGMVFGGGTKLTVLG"
result_units = "fold"
numeric_result = 52.6

[[record]]
binder = "MOR04354 Fab (Fab, V domains shown, X-cloned Fab (VH of MOR04290 x VL of MOR04302) with FLAG and 6xHis tags) VH: QVQLVESGGGLVQPGGSLRLSCAASGFTFSSYWMNWVRQAPGKGLEWVSGIESKWAGGATYYAAGVKGRFTISRDNSKNTLYLQMNSLRAEDTAVYYCARGFGTDFWGQGTLVTVSS VL: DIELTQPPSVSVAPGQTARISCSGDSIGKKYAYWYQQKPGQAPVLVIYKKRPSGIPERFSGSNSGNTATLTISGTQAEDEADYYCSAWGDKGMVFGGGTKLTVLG"
result_units = "fold"
numeric_result = 77.1

[[record]]
binder = "MOR04251 Fab (Fab, V domains shown) VH: QVQLVESGGGLVQPGGSLRLSCAASGFTFSSHWMSWVRQAPGKGLEWVSNIWRGPYIYYADSVKGRFTISRDNSKNTLYLQMNSLRAEDTAVYYCARFQGYGGGFDYWGQGTLVTVSS VL: DIELTQPPSVSVAPGQTARISCSGDNLPGKYVHWYQQKPGQAPVLVIYYDSNRPSGIPERFSGSNSGNTATLTISGTQAEDEADYYCQSRTQTTIVFGGGTKLTVLG"
result_units = "fold"
numeric_result = 9.3

[[record]]
binder = "MOR04287 Fab (Fab, V domains shown, Fab with FLAG and 6xHis tags) VH: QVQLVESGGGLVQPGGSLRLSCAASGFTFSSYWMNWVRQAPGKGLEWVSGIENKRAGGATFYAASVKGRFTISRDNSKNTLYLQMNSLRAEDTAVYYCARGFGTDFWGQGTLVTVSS VL: DIELTQPPSVSVAPGQTARISCSGDSIGKKYAYWYQQKPGQAPVLVIYKKRPSGIPERFSGSNSGNTATLTISGTQAEDEADYYCSSWDSTGLVFGGGTKLTVLG"
result_units = "fold"
numeric_result = 1.3


Query: Give the measured IC50 x-fold improved compared to Mab215, TF-1 proliferation assay for MOR04290 Fab (Fab, V domains shown, Fab with FLAG and 6xHis tags) VH: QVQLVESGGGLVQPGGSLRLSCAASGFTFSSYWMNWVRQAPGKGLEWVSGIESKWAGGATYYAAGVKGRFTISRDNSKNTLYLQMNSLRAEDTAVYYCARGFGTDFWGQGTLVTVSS VL: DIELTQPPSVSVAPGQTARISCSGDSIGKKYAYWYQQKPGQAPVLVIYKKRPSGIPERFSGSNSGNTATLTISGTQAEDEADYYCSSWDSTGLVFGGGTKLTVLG
Reply: 6.2

Query: Give the measured IC50 x-fold improved compared to Mab215, TF-1 proliferation assay for MOR04252 Fab (Fab, V domains shown, Fab with FLAG and 6xHis tags) VH: QVQLVESGGGLVQPGGSLRLSCAASGFTFSSYWMNWVRQAPGKGLEWVSGIENKYAGGATYYAASVKGRFTISRDNSKNTLYLQMNSLRAEDTAVYYCARGFGTDFWGQGTLVTVSS VL: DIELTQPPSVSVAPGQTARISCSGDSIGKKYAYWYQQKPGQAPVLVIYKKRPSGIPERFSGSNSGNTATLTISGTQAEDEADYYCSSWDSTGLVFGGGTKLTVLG
Reply: 2.1
